Tested on: Huh-luc/neo-ET cells
Test: Cell cytotoxic test (MTT) on Huh-luc/neo-ET cells
Type: cell-based
Conditions: concentration for 15% cell kill, two-day culture
measured.attribute: CC15 (µM)
Quick note: give the figure in µM, leave out the unit.

C=CC(C)(O)CC/C=C(\C)C(=O)OC1C(OCC2OC(OC(=O)C34CCC(C)(C)CC3C3=CCC5C6(C)CCC(OC7OC(COC8OCC(O)C(O)C8OC8OCC(O)C(O)C8O)C(O)C(O)C7O)C(C)(C)C6CCC5(C)C3(C)CC4O)C(OC3OC(C)C(OC4OCC(O)C(OC5OCC(O)C(O)C5O)C4O)C(O)C3O)C(OC(=O)/C(C)=C/CCC(C)(O)C=C)C2O)OC(C)C(O)C1O (centres unmarked) yielded CC15 of 11.64

CC1(C)CC[C@]2(C(=O)O)CC[C@]3(C)C(=CCC4[C@@]5(C)C[C@@H](O)[C@H](O)[C@@](C)(COC(=O)/C=C/c6ccc(O)cc6)C5CC[C@]43C)C2C1 (some centres unmarked) yielded CC15 of 9.6

----------
Test system: HCV replicon system (Huh-luc/neo-ET cell carrying I389luc-ubi-NS3-3'/ET)
Assay: Inhibition of the HCV replication by determining the firefly luciferase activity (HCV replicon system)
Type: cell-based, Hepatitis C virus
Settings: ratio of CC50/IC50
measured.attribute: EW (CC50/IC50)

// worked examples, EW (CC50/IC50) included
C=CC(C)(O)CC/C=C(\C)C(=O)OCC1OC(OC(=O)C23CCC4(C)C(=CCC5C6(C)CCC(OC7OC(COC8OC(CO)C(O)C(O)C8O)C(OC8OCC(O)C(O)C8OC8OCC(O)C(O)C8O)C(O)C7NC(C)=O)C(C)(C)C6CCC54C)C2CC(C)(C)C(O)C3O)C(OC2OCC(OC3OCC(O)(CO)C3O)C(O)C2O)C(O)C1OC1OC(CO)C(OC(C)=O)C(O)C1O (stereo not shown); 317.89
C=CC(C)(O)CC/C=C(\C)C(=O)OCC1OC(OC(=O)C23CCC4(C)C(=CCC5C6(C)CCC(OC7OC(COC8OC(CO)C(O)C(O)C8O)C(OC8OCC(O)C(O)C8OC8OCC(O)C(O)C8O)C(O)C7NC(C)=O)C(C)(C)C6CCC54C)C2CC(C)(C)C(O)C3O)C(OC2OCC(OC3OCC(O)(CO)C3O)C(O)C2O)C(O)C1OC1OC(CO)C(O)C(O)C1O (stereo not shown); 107.9
C=CC(C)(O)CC/C=C(\C)C(=O)OC1C(O)C(CO)OC(OC(=O)C23CCC(C)(C)CC2C2=CCC4C5(C)CCC(OC6OC(COC7OCC(OC(C)=O)C(O)C7OC7OC(COC(C)=O)C(O)C(O)C7OC(C)=O)C(O)C(O)C6OC6OCC(O)C(O)C6O)C(C)(C)C5CCC4(C)C2(C)C(O)C3O)C1OC1OCC(OC2OCC(O)C(OC3OCC(O)C(O)C3O)C2O)C(O)C1O (stereo not shown); 435.61

# input for lookup
C=CC(C)(O)CC/C=C(\C)C(=O)OC1C(OCC2OC(OC(=O)C34CCC(C)(C)CC3C3=CCC5C6(C)CCC(OC7OC(COC8OCC(O)C(O)C8OC8OCC(O)C(O)C8O)C(O)C(O)C7O)C(C)(C)C6CCC5(C)C3(C)CC4O)C(OC3OC(C)C(OC4OCC(O)C(OC5OCC(O)C(O)C5O)C4O)C(O)C3O)C(OC(=O)/C(C)=C/CCC(C)(O)C=C)C2O)OC(C)C(O)C1O (stereo not shown) yielded EW (CC50/IC50) of 90.03

----------
# CC15 listing for each entry below
System: Huh-luc/neo-ET cells
Assay: Cell cytotoxic test (MTT) on Huh-luc/neo-ET cells
Type: cell-based
Conditions: concentration for 15% cell kill, two-day culture
Quick note: give the figure in µM, leave out the unit.

// worked examples, CC15 included
C=CC(C)(O)CC/C=C(\C)C(=O)OCC1OC(OC(=O)C23CCC4(C)C(=CCC5C6(C)CCC(OC7OC(COC8OC(CO)C(O)C(O)C8O)C(OC8OCC(O)C(O)C8OC8OCC(O)C(O)C8O)C(O)C7NC(C)=O)C(C)(C)C6CCC54C)C2CC(C)(C)C(O)C3O)C(OC2OCC(OC3OCC(O)(CO)C3O)C(O)C2O)C(O)C1OC1OC(CO)C(OC(C)=O)C(O)C1O (stereo not drawn) [A17]; 1.49
C[C@H]1O[C@@H](O[C@H]2CC[C@@]3(C)[C@@H](CC[C@]4(C)[C@@H]3C=C[C@]35OC[C@@]6(CCC(C)(C)C[C@H]63)[C@H](O)C[C@]54C)[C@]2(C)CO)[C@H](O)[C@@H](O[C@@H]2O[C@H](CO)[C@@H](O)[C@H](O)[C@H]2O)[C@H]1O [A05, Saikosaponin D]; 16.1
C=CC(C)(O)CC/C=C(\C)C(=O)OC1C(O)C(CO)OC(OC(=O)C23CCC(C)(C)CC2C2=CCC4C5(C)CCC(OC6OC(COC7OCC(OC(C)=O)C(O)C7OC7OC(COC(C)=O)C(O)C(O)C7O)C(O)C(O)C6OC6OCC(O)C(O)C6O)C(C)(C)C5CCC4(C)C2(C)C(O)C3O)C1OC1OCC(OC2OCC(O)C(OC3OCC(O)C(O)C3O)C2O)C(O)C1O (stereo not drawn) [A20]; 18.85
C=CC(C)(O)CCCC(C)C(=O)OC1C(OC2OCC(OC3OC(CO)C(O)C(O)C3O)C(OC3OCC(O)C(OC4OC(CO)C(O)C(O)C4O)C3O)C2O)COC(OC(=O)C23CCC(C)(C)CC2C2=CCC4C5(C)CCC(OC6OC(CO)C(OC7OC(CO)C(O)C(OC8OCC(O)C(O)C8O)C7O)C(O)C6O)C(C)(C)C5CCC4(C)C2(C)CC3O)C1O (stereo not drawn) [A10]; 2.2
C=CC(C)(O)CC/C=C(\C)C(=O)O[C@H]1[C@H](O)[C@@H](CO)OC(OC(=O)[C@]23CCC(C)(C)CC2C2=CCC4[C@@]5(C)CC[C@H](OC6O[C@H](COC7OC[C@H](O)[C@H](O)[C@H]7OC7OC[C@@H](O)[C@H](O)[C@H]7O)[C@@H](O)[C@H](O)[C@H]6O)C(C)(C)C5CC[C@@]4(C)[C@]2(C)CC3)[C@@H]1OC1OC(C)C(OC2OC[C@@H](O)[C@H](OC3OC[C@@H](O)[C@H](O)[C@H]3O)[C@H]2O)C(O)C1O (stereo partly drawn) [A25]; 10.29

# input for lookup
C=CC(C)(O)CC/C=C(\C)C(=O)OC1C(O)C(CO)OC(OC(=O)C23CCC(C)(C)CC2C2=CCC4C5(C)CCC(OC6OC(COC7OCC(OC(C)=O)C(O)C7OC7OC(COC(C)=O)C(O)C(O)C7OC(C)=O)C(O)C(O)C6OC6OCC(O)C(O)C6O)C(C)(C)C5CCC4(C)C2(C)C(O)C3O)C1OC1OCC(OC2OCC(O)C(OC3OCC(O)C(O)C3O)C2O)C(O)C1O (stereo not drawn) [A19] yielded CC15 of 1.17

----------
System: Huh-luc/neo-ET cells
Assay: Cell cytotoxic test (MTT) on Huh-luc/neo-ET cells
Assay type: cell-based
Settings: concentration for 15% cell kill, two-day culture
# CC15 listing for each entry below
Quick note: give the figure in µM, leave out the unit.

// worked examples, CC15 included
CC(=O)OC1C(OC(=O)C(C)C)C2(CO)C(CC1(C)C)C1=CCC3C4(C)CCC(OC5OC(C)C(OC6OC(C(=O)O)C(O)C(OC7OC(CO)C(O)C(O)C7OC7OC(CO)C(O)C(O)C7O)C6O)C(O)C5O)C(C)(C)C4CCC3(C)C1(C)C(O)C2O (stereo not shown); 16.1
CC(=O)NC1C(O[C@H]2CC[C@@]3(C)C(CC[C@]4(C)C3CC=C3C5CC(C)(C)CC[C@]5(C(=O)OC5OC(COC(=O)/C=C/c6ccccc6)C(OC6OC(CO)C(O)C(O)C6OC(C)=O)C(O)C5OC5OCC(OC6OCC(O)(CO)C6O)C(O)C5O)CC[C@]34C)C2(C)C)OC(COC2OCC(O)C(O)C2OC2OCC(O)C(O)C2O)C(OC2OC(CO)C(O)C(O)C2O)C1O (stereo partly shown); 4.53
CC(=O)OCC1OC(OC2COC(OC3COC(OC4C(OC5C(CO)OC(OC6CCC7(C)C(CCC8(C)C7CC=C7C9CC(C)(C)CCC9(C(=O)OC9OC(CO)C(O)C(O)C9OC9OCC(O)C(OC%10OCC(O)(CO)C%10O)C9O)C(O)CC78C)C6(C)C)C(O)C5O)OCC(O)C4O)C(O)C3O)C(O)C2O)C(OC(=O)/C=C/c2ccccc2)C(O)C1OC(C)=O (stereo not shown); 8.9
C=CC(C)(O)CC/C=C(\C)C(=O)OCC1OC(OC(=O)C23CCC4(C)C(=CCC5C6(C)CCC(OC7OC(COC8OC(CO)C(O)C(O)C8O)C(OC8OCC(O)C(O)C8OC8OCC(O)C(O)C8O)C(O)C7NC(C)=O)C(C)(C)C6CCC54C)C2CC(C)(C)C(O)C3O)C(OC2OCC(OC3OCC(O)(CO)C3O)C(O)C2O)C(O)C1OC1OC(CO)C(O)C(O)C1O (stereo not shown); 12.09
CC1(C)CC2C3=CCC4[C@@]5(C)CC[C@H](OC6OCC(O)C(OC7OC(CO)C(O)C(O)C7O)C6O)C(C)(C)C5CC[C@@]4(C)[C@]3(C)C[C@H](O)[C@@]2(CO)[C@H](OC(=O)c2ccccc2)C1 (stereo partly shown); 8.62

# input for lookup
CC15 on Huh-luc/neo-ET cells for C=CC(C)(CC/C=C(\CO)C(=O)OC1CC2(C(=O)OC3OCC(OC4CC(CO)C(O)C(OC5OC(CO)C(OC6OC(C)C(O)C(O)C6O)C(O)C5O)C4O)C(O)C3O)CCC3(C)C(=CCC4C5(C)CCC(OC6OC(CO)C(OC7OC(CO)C(O)C(OC8OCC(O)C(O)C8O)C7O)C(O)C6O)C(C)(C)C5CCC43C)C2CC1(C)C)OC1OC(C)C(O)C(O)C1O (stereo not shown) is 19.44
